- System: anesthetized male Sprague-Dawley rats
- protocol_details: In vivo blood pressure measurement
- Set-up: species or system rat
- measurement_context: i.v. bolus, doses 19.6 and 65 nmol/kg
measured_attribute: ΔMABP (drop in blood pressure) (mmHg)
Only the number, expressed in mmHg, is required.

See these solved cases before continuing.
molecule	reading
CCCC[C@H](NC(=O)[C@@H]1CCCN1C(=O)CNC(=O)[C@H](CCCCN)NC(=O)[C@@H]1Cc2cncn2CC=CC[C@H](NC(=O)[C@H](CCCNC(=N)N)NC(=O)[C@@H]2CCC(=O)N2)C(=O)N[C@@H](CCCNC(=N)N)C(=O)N[C@@H](CC(C)C)C(=O)N[C@@H](CO)C(=O)N1)C(=O)N1CCC[C@H]1C(=O)N[C@@H](Cc1ccccc1)C(=O)O [Compound 15, Pyr-R-c[X-R-L-S-Alh]c-K-G-P-Nle-P-F]	−40
CCCC[C@H](NC(=O)[C@@H]1CCCN1C(=O)CNC(=O)[C@H](CCCCN)NC(=O)[C@@H]1CC=CC[C@H](N)C(=O)N[C@@H](CCCNC(=N)N)C(=O)N[C@@H](CC(C)C)C(=O)N[C@@H](CO)C(=O)N1)C(=O)N1CCC[C@H]1C(=O)N[C@@H](Cc1ccccc1)C(=O)O [Compound 20, NH2-c[X-R-L-S-X]c-K-G-P-Nle-P-F]	−27
CCCC[C@H](NC(=O)[C@@H]1CCCN1C(=O)CNC(=O)[C@H](CCCCN)NC(=O)[C@@H]1CC=CC[C@H](N)C(=O)N[C@@H](CCCNC(=N)N)C(=O)N[C@@H](CC(C)C)C(=O)N[C@@H](CO)C(=O)N1)C(=O)O [Compound 29, NH2-c[X-R-L-S-X]c-K-G-P-Nle]	−13

# molecule CC(C)C[C@@H]1NC(=O)[C@H](CCCNC(=N)N)NC(=O)[C@@H](N)CC=CC[C@@H](C(=O)N[C@@H](CCCCN)C(=O)NCC(=O)N2CCC[C@H]2C(=O)N[C@H](Cc2cccc3ccccc23)C(=O)O)NC(=O)[C@H](CO)NC1=O [Compound 42, NH2-c[X-R-L-S-X]c-K-G-P-(D-1Nal)] ; its ΔMABP (drop in blood pressure) = −24

====

- test_target: hAPJ receptor (Homo sapiens, UniProt P35414)
- Construct: expressed in transfected cells; host or cells: HEK293, transient transfection with PEI
- Sequence (P35414 whole entry): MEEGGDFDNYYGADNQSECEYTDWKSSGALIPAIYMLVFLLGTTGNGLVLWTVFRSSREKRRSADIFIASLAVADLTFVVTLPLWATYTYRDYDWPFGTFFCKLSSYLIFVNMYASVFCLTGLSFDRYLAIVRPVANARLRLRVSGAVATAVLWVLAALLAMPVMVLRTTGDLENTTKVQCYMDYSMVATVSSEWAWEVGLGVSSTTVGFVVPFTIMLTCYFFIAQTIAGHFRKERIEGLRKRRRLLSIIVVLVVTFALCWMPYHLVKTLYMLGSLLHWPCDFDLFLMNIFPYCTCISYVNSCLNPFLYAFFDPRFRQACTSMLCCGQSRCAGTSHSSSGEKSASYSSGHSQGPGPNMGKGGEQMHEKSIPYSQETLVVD
- protocol_details: BRET-based β-arrestin2 recruitment assay in HEK293 cells
- Assay type: cell-based
- measurement_context: HEK293; Table V; read-out: ß-arr2 Emax
measured_attribute: Emax (%)
Only the number, expressed in %, is required.

CC(C)C[C@@H]1NC(=O)[C@H](CCCNC(=N)N)NC(=O)[C@@H](N)CC=CC[C@@H](C(=O)N[C@@H](CCCCN)C(=O)NCC(=O)N2CCC[C@H]2C(=O)N[C@H](Cc2ccc(OCc3ccccc3)cc2)C(=O)O)NC(=O)[C@H](CO)NC1=O [Compound 44, NH2-c[X-R-L-S-X]c-K-G-P-(D-TyrOBn)] on hAPJ receptor (Homo sapiens, UniProt P35414) gives Emax = 78
